- subject_of_test: JNK3 (Homo sapiens, UniProt P53779)
- Construct: One such construct encodes amino acid residues Ser40-Glu402 of JNK3α1 and is preceded by Met and Gly residues; Met-Gly (initiation methionine plus glycine added for the NcoI site); made in house; host or cells: E. coli BL21 (DE3)
- Sequence (P53779 40-402): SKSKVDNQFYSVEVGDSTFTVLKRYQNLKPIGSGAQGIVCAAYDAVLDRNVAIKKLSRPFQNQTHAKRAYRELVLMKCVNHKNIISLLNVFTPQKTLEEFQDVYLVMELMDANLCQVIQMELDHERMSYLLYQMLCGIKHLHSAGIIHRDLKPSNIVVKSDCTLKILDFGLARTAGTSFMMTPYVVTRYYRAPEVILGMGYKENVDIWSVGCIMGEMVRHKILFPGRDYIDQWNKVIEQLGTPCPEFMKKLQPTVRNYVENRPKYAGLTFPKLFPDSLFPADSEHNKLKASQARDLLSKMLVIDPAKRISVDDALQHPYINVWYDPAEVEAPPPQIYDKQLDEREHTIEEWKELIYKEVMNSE
- assay_comment: JNK inhibition assay: spectrophotometric coupled-enzyme assay with activated JNK3
- Type: biochemical
- settings: activated JNK3 10 nM, 10 μM ATP, 200 μM EGF receptor peptide, 30° C., competitive inhibition model
endpoint: Ki

Solved cases (6 shown):
COc1ccc(CN2C(=O)/C(=N\O)c3cc(OC(F)(F)F)ccc32)cc1 = ≥ 1 µM
COc1cc(CN2C(=O)/C(=N\O)c3cc(Cl)cc(C)c32)cc(OC)c1 = < 1 µM
Cc1cc(Cl)cc2c1N(Cc1cccc(Oc3ccccc3)c1)C(=O)/C2=N\O = ≥ 1 µM
O=C1/C(=N\O)c2ccccc2N1Cc1cccc(C(F)(F)F)c1 = ≥ 1 µM
O=C1/C(=N\O)c2cc(F)ccc2N1Cc1cccc(F)c1 = ≥ 1 µM
CC(=O)Nc1cccc(-c2ccc3c(c2)/C(=N/O)C(=O)N3Cc2cc(F)cc3c2OCOC3)c1 = ≥ 1 µM

Give Ki for each listed item.
1. O=C1/C(=N\O)c2ccc(-c3ccccc3)cc2N1Cc1cc(F)cc2c1OCOC2
2. O=C(NCc1cccnc1)c1ccc2c(c1)N(Cc1cc(F)cc3c1OCOC3)C(=O)/C2=N\O
3. N#CCC(=O)Nc1ccc2c(c1)N(Cc1cc(F)cc3c1OCOC3)C(=O)/C2=N\O
4. CC(C)CCN(CCC(C)C)c1ccc2c(c1)/C(=N/O)C(=O)N2Cc1cc(F)cc2c1OCOC2

1: < 1 µM; 2: ≥ 1 µM; 3: < 1 µM; 4: ≥ 1 µM
